tested on: LOX IMVI melanoma; experiment: NCI-60 one-dose screen, 48 h (100 = growth as untreated, 0 = no growth, -100 = all killed); details: 10 µM unless noted
This is part of a sample that, as a whole, favours compounds with a hit. Of some 83,000 tested, about 20% had one in any assay.
growth under 40% gets 1.0, anything at or over 40% gets 0.0.

Take a look at these entries with their results.
{"molecule": "O=C1NC(=S)NC(=O)C1CC(=O)n1c(-c2ccccc2)nc2ccccc21", "answer-label": 0.0}
{"molecule": "COc1cc2c(cc1O)CC[C@@H]1[C@@H]2CC[C@]2(C)[C@@H](OCCN(C)C)CC[C@@H]12", "answer-label": 0.0}
{"molecule": "COc1cc(-c2nn(-c3ccc(C)cc3)cc2C(=O)O)ccc1O", "answer-label": 0.0}
{"molecule": "O=C1c2cc3c(cc2-c2c1c1cc(F)c(F)cc1c(=O)n2CCCn1ccnc1)OCO3", "answer-label": 1.0}
{"molecule": "COc1cc2c(cc1-c1c(C)noc1C)ncc1nc(C3CCCC3)n([C@H](C)COC(F)F)c12", "answer-label": 1.0}
{"molecule": "N#Cc1c(-c2ccc(Cl)cc2)nc(NN=Cc2ccco2)nc1N1CCOCC1", "answer-label": 0.0}

hey, is growth for C=C1c2nc3ccccc3n2C=C(c2ccc(OC)cc2)N1Cc1ccccc1 lower than 40% or not? 0.0

Another molecule to check: C(=N/Nc1ncc(-c2cc3cc(-c4ccccc4)ccc3o2)s1)/c1cccs1 0.0

Please give the result for Cn1cc(C(=O)c2nc(-c3c[nH]c4ccc(Br)cc34)no2)c2cc(F)ccc21 too. 0.0

Entry to check: CC1CCNC(C)C1 (configuration not stated) 0.0

Further, for CN(C)c1ccc(N=Nc2ccccn2)c(O)c1 ? 1.0

----------
system: OVCAR-4 ovarian; assay: NCI-60 one-dose screen, 48 h; conditions: 10 µM unless noted
This is part of a sample that, as a whole, favours compounds with a hit. Of some 83,000 tested, about 20% had one in any assay. Activity calls are given as the source filed them. The calls were made as follows: active = growth percent below 10; inactive = the rest.
Assign a class; possible classes are Yes for active, No for inactive

{"compound": "CCCSc1ccc2nc(NC(=O)OC)[nH]c2c1", "answer-label": "No"}
{"compound": "COc1cc2c(cc1-c1c(C)noc1C)ncc1nc(C3CCC(F)(F)CC3)n([C@H](C)COC(F)F)c12", "answer-label": "No"}
{"compound": "Cc1ccccc1COc1ccc(-c2onc(C)c2-c2ccc(Cl)cc2)cc1", "answer-label": "No"}
{"compound": "Nc1n[nH]c2ccc([C@@H]3Nc4cc5c(cc4[C@H]4C6CCC(C6)[C@@H]34)C(=O)NC5)cc12 (stereo not given in full)", "answer-label": "No"}

How was CC(C)C1=C[C@@]23CC[C@@H]4[C@](C)(CCC[C@@]4(C)C(=O)N4CCCNCC4)[C@H]2C[C@@H]1[C@H]1C(=O)CCC(=O)[C@H]13 classified in this test? No

Cool, now COc1ccc(SC2c3cc(OC)c(OC)cc3Oc3nc(N)c(C#N)c(N)c32)cc1 (stereo not given) Yes

Try the compound COc1ccc(-n2nc(C)c3c(Nc4ccc(NC(=O)Nc5cc(C(F)(F)F)ccc5F)cc4)ncnc32)cc1 No

Try the compound Clc1ccc2nc3nc4ccc[nH]c4cc3c2c1 No

Item: C=CC(=O)Nc1cccc(-c2nc(SC)nc(NCc3ccccc3)c2C#N)c1 No

// repeat for COc1ccc2c(c1)c(-c1nonc1-c1cn(C)c3ccccc13)cn2C and report No

----------
system: EKVX NSCLC; test: NCI-60 one-dose screen, 48 h (100 = growth as untreated, 0 = no growth, -100 = all killed); details: 10 µM unless noted
The panel holds about 83,000 compounds, 20% with a hit somewhere; the sample as a whole holds those more often.
Parameter threshold = 70%. Response is 1 (yes) when growth meets or exceeds it, else 0 (no).

{"molecule": "N#CCCN=Nc1c(O)[nH]c2ccc(F)cc12", "answer-label": "1 (yes)"}
{"molecule": "O=c1c2c3c(sc2nc(N/N=C/c2cn(-c4ccccc4)nc2-c2ccc(Cl)cc2)n1Cc1ccccc1)CCCC3", "answer-label": "1 (yes)"}

Query molecule follows.
Is it the case that COc1ccc(-n2nc(C)c3c(Nc4ccc(NC(=O)Nc5cc(C(F)(F)F)ccc5F)cc4)ncnc32)cc1 has growth reaching or exceeding 70%? 0 (no)

----------
test system: SK-OV-3 ovarian; test: NCI-60 one-dose screen, 48 h; conditions: 10 µM unless noted
This is part of a sample that, as a whole, favours compounds with a hit. Of some 83,000 tested, about 20% had one in any assay. Calls of active or inactive are those of the source. Rule for the calls: active = growth percent below 10; inactive = the rest.
Allowed answers: T = active, F = inactive

{"molecule": "COc1ccc(Nc2nc(SC)nc(-c3cccc([N+](=O)[O-])c3)c2C#N)cc1", "answer-label": "F"}
{"molecule": "O=C(/C=C/c1ccccc1)c1ccc(O)c(CN2CCN(c3cc4c(cc3F)c(=O)c(C(=O)O)cn4C3CC3)CC2)c1", "answer-label": "F"}
{"molecule": "COc1ccc(/C=C/C(=O)c2cc(O)ccc2O)cc1", "answer-label": "F"}

Fill in: this test's call for CCOC(=O)c1sc2nc(-c3cccc(O)c3)nc(N3CCOCC3)c2c1C is ___ F

Another molecule to look at: COc1cccc(-c2nn(C(C)(C)C)cc2-c2ccnc(NCCCNS(=O)(=O)c3ccc(C)cc3)c2)c1 F

Similarly, COc1ccc(SC2c3ccc(C)cc3Oc3nc(N)c(C#N)c(N)c32)cc1 (stereo not given) ? F

Please answer likewise for Nc1n[nH]c2ccc([C@@H]3Nc4ccc5cn[nH]c5c4[C@H]4C5CCC(C5)[C@@H]34)cc12 (stereo not given in full) F

For COC(=O)c1ccc(Cn2cnc3c(N)ncnc32)cc1 then? F

Similarly, O=S(=O)(Nc1ccc(Br)c(Cl)c1)c1ccc(-c2cnc(C3CC3)o2)cc1 ? F

----------
tested on: SK-MEL-28 melanoma; test: NCI-60 one-dose screen, 48 h (100 = growth as untreated, 0 = no growth, -100 = all killed); conditions: 10 µM unless noted
Compounds without any hit were thinned out: in the full panel of roughly 83,000, 20% have a hit.
The following compounds are listed with their measured growth values.
Only the number, expressed in %, is required.

{"sample-smiles": "COc1ccc(C(=O)COc2ccc(/C=C3\\COc4ccc(OC)cc4C3=O)cc2)cc1", "data-value": 94.5}
{"sample-smiles": "COc1ccc(S(=O)(=O)N2CCCCC2)cc1NC(=O)c1[nH]c(C)c2c1CCCCC2=O", "data-value": 48.1}
{"sample-smiles": "COc1cc(/C=C/C(=O)c2c(C)oc3nc[nH]c(=O)c23)cc(OC)c1OC", "data-value": 93.9}
{"sample-smiles": "C[n+]1ccccc1/C=C/c1ccc2cccc(O)c2n1", "data-value": 95.7}
{"sample-smiles": "CSc1nc(NCCN2CCOCC2)c(C#N)c(-c2cccc([N+](=O)[O-])c2)n1", "data-value": 103}

Provide the documented growth with SK-MEL-28 melanoma as the system for O=S(=O)(Nc1ccc(Cl)c(F)c1)c1ccc(-c2cnc(C3CC3)o2)cc1 58.5

Same thing, different compound: CCOC(=O)c1c(C)oc2ncnc(N3CCN(C(=O)COc4ccc(SC)cc4)CC3)c12 110

----------
system: SF-539 CNS; assay: NCI-60 one-dose screen, 48 h (100 = growth as untreated, 0 = no growth, -100 = all killed); settings: 10 µM unless noted
This is part of a sample that, as a whole, favours compounds with a hit. Of some 83,000 tested, about 20% had one in any assay.
Answer NO if growth is under 20%, and YES if it is 20% or more.

{"compound": "COc1ccc(C(=O)/C=C/c2cccnc2Nc2cc(OC)c(OC)c(OC)c2)cc1", "test-target": "SF-539 CNS", "answer-label": "NO"}

growth >= 20% for COc1cccc(-c2nc3sccn3c2-c2ccnc(NCCCNS(=O)(=O)c3cccc(F)c3)c2)c1 ? YES

One more compound: c1ccc(Cn2cc(-c3nc4ccccc4s3)c3cccnc32)cc1 YES

Same question for COc1cc2c(cc1-c1c(C)noc1C)ncc1nc(C3CCC(F)(F)CC3)n([C@H](C)COC(F)F)c12 please. YES

Try this compound next: COc1cc(/C=C/c2cc(/C=C/c3ccc(O)c(OC)c3)n(-c3c(C)cccc3C)c(=O)n2)ccc1O NO

Another compound to look at: CCCCn1c(-c2ccc(C(=O)O/N=C(\N)c3ccc4c(c3)OCO4)cc2)nc(-c2ccccc2)c1-c1ccccc1 YES

Repeat with C=CCSSC1N=CNc2nc[nH]c21 (configuration not stated) NO

Queued: COc1ccc(-c2cc(=O)c3c(OC)c4ccoc4cc3o2)cc1 YES

Same again, this time with CC[C@H]1OC(=O)[C@H](C)[C@@H](O[C@H]2C[C@@](C)(OC)[C@@H](O)[C@H](C)O2)[C@H](C)[C@@H](O[C@@H]2O[C@H](C)C[C@H](N(C)C)[C@H]2O)[C@](C)(O)C[C@H](C)CN(C)[C@H](C)[C@@H](O)[C@]1(C)O YES

Also, C=C1c2nc3ccccc3n2C=C(c2cccc(Cl)c2)N1Cc1ccc(OC)cc1 please. NO

Now try CCOc1cc2c(cc1OCC)C(c1cc(OC)c(O)cc1Cl)NCC2 (configuration not stated) . YES

And then O=C(N/N=C/c1ccccc1O)c1ccccc1Nc1ccnc(C(F)(F)F)c1 , what is it? NO
